Below, each of the compounds is paired with its reported Inhibition 1 value.
study.target: cloned human or rodent CNS receptors, channels, and transporters (PDSP panel) (Homo sapiens, UniProt P08173)
Construct: expressed in transfected cells
Sequence (P08173 whole entry): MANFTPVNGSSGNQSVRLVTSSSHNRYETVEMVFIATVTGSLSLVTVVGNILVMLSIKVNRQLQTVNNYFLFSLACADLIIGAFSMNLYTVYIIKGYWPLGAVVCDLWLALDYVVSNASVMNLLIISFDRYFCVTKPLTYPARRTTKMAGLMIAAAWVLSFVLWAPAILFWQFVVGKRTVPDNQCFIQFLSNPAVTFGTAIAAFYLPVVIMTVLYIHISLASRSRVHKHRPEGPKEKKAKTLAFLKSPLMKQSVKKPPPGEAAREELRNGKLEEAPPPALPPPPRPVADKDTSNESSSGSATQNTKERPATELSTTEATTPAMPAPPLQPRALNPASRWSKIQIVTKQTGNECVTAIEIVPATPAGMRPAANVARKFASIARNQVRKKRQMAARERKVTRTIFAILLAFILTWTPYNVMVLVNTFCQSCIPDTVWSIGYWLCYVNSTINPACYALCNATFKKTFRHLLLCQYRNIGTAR
procedure.text: PDSP GPCR panel primary binding assays at 10 μM
study.conditions: Receptor M4; primary assay, 10 μM
Answer format: number, then unit.

>>> print(df.to_string())
                                   compound  reported
0  c1cn2cc(-c3ccc4cn[nH]c4c3)nc(Nc3ccc(N4CCOCC4)cc3)c2n1 [UNC10302678A, Entospletinib (GS-9973)]    35.72%
1  O=c1oc2ccccc2cc1-c1cn2cc(Cc3ccc(F)cc3)sc2n1 [UNC10302680A, iMDK]     4.02%
2  CCCCNc1ncc2c(-c3ccc(CN4CCN(C)CC4)cc3)cn([C@H]3CC[C@H](O)CC3)c2n1 [UNC2025C, UNC2025]    21.02%

Now consider a different compound.
[ask] Given the compound Cl.NC(=O)c1cnc(N[C@@H]2CCCC[C@@H]2N)nc1Nc1cccc(-n2nccn2)c1 [UNC10302682A, P505-15 (PRT06207 HCl)] , what is its reported Inhibition 1?
[reply] 24.23%

====

Catalogue of molecules with associated Inhibition 4
study.target: cloned human or rodent CNS receptors, channels, and transporters (PDSP panel) (Homo sapiens, UniProt P35372)
Construct: expressed in transfected cells
Sequence (P35372 whole entry): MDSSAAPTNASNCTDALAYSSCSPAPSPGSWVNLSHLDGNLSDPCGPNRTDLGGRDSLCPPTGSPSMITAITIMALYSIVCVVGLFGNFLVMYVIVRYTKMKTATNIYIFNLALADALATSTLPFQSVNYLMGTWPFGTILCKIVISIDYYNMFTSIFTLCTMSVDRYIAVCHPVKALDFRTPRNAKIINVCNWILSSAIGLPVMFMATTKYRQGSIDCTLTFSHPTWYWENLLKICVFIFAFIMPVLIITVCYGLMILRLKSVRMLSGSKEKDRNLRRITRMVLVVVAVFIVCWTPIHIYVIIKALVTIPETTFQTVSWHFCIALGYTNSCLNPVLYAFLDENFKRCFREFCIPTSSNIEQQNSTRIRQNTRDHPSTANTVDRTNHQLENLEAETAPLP
procedure.text: PDSP GPCR panel primary binding assays at 10 μM
study.conditions: Receptor MOR; primary assay, 10 μM
All answers are understood in %, so give the number only.

Study these solved cases before continuing.
                                   molecule  value_unit  reported
0  c1cn2cc(-c3ccc4cn[nH]c4c3)nc(Nc3ccc(N4CCOCC4)cc3)c2n1 [UNC10302678A, Entospletinib (GS-9973)]           %     -3.58
1  O=c1oc2ccccc2cc1-c1cn2cc(Cc3ccc(F)cc3)sc2n1 [UNC10302680A, iMDK]           %      1.88
2  Cl.NC(=O)c1cnc(N[C@@H]2CCCC[C@@H]2N)nc1Nc1cccc(-n2nccn2)c1 [UNC10302682A, P505-15 (PRT06207 HCl)]           %     20.19

Here is another molecule to look at.
[ask] Bench note: what Inhibition 4 did CCCCNc1ncc2c(-c3ccc(CN4CCN(C)CC4)cc3)cn([C@H]3CC[C@H](O)CC3)c2n1 [UNC2025C, UNC2025] show?
[reply] 6.67

====

study.target: cloned human or rodent CNS receptors, channels, and transporters (PDSP panel) (Homo sapiens)
Construct: expressed in transfected cells
procedure.text: PDSP GPCR panel primary binding assays at 10 μM
study.conditions: D4; primary assay, replicate 2
measurement.label: Inhibition 2

Check out these entries, answers already filled in.
>>> print(df.to_string())
                                   compound  measurement_label  reported
0  CNc1nc(C)nc(N[C@H]2CCC[C@@H](C(=O)NCc3ccc(C#N)cc3C(F)(F)F)C2)n1 [UNC10302679A, GSK2256294A]       Inhibition 2    -2.96%
1  O=C(NC1CC1)C(=O)C(Cc1ccccc1)NC(=O)[C@H]1CCC(=O)N1Cc1ccccc1 (stereo partly shown) [UNC10302676A, ABT-957 (Alicapistat)]       Inhibition 2   -11.66%
2  CC(=O)N1CCC(NC(=O)NC23CC4CC(CC(C4)C2)C3)CC1 [UNC10302683A, AR9281]       Inhibition 2    -3.44%

The record that follows has no Inhibition 2 shown yet.
[ask] What measured Inhibition 2 goes with CCC(=O)N1CCC(NC(=O)Nc2ccc(OC(F)(F)F)cc2)CC1 [UNC10302681A, TPPU] ?
[reply] 3.44%

====

study.target: cloned human or rodent CNS receptors, channels, and transporters (PDSP panel) (Homo sapiens, UniProt P08908)
Construct: expressed in transfected cells
Sequence (P08908 1-422): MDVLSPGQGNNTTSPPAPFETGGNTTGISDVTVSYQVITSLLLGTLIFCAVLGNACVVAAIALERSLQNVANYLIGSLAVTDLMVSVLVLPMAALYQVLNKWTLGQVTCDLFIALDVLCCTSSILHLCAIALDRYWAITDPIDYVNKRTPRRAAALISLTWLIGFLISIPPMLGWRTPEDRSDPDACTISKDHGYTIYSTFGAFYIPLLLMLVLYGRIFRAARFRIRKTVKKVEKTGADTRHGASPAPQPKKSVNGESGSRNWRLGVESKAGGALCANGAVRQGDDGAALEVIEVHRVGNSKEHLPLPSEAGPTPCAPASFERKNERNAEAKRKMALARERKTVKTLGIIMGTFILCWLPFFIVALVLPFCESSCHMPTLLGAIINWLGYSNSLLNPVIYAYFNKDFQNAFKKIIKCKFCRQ
procedure.text: PDSP GPCR panel primary binding assays at 10 μM
study.conditions: Receptor 5-HT1A; primary assay, 10 μM
measurement.label: Inhibition 4 (%)
# value in %; strip the unit string

Solved cases (3 shown):
In [3]: df
Out[3]:
                                   compound  value_unit  reported
0  Cl.NC(=O)c1cnc(N[C@@H]2CCCC[C@@H]2N)nc1Nc1cccc(-n2nccn2)c1 [UNC10302682A, P505-15 (PRT06207 HCl)]           %     21.46
1  c1cn2cc(-c3ccc4cn[nH]c4c3)nc(Nc3ccc(N4CCOCC4)cc3)c2n1 [UNC10302678A, Entospletinib (GS-9973)]           %      6.29
2  O=c1oc2ccccc2cc1-c1cn2cc(Cc3ccc(F)cc3)sc2n1 [UNC10302680A, iMDK]           %      3.71

Pending compound:
[ask] Which Inhibition 4 is reported for this compound? CCCCNc1ncc2c(-c3ccc(CN4CCN(C)CC4)cc3)cn([C@H]3CC[C@H](O)CC3)c2n1 [UNC2025C, UNC2025]
[reply] 31.46

====

Tested on: cloned human or rodent CNS receptors, channels, and transporters (PDSP panel)
procedure.text: PDSP GPCR panel primary binding assays at 10 μM
study.conditions: Receptor DOR; primary assay, 10 μM
# reported Inhibition 3; entries follow
The answer is to be given in %; state only the numeric part.

Use the examples below as a reference point.
                                   molecule                              study_target  reported
0  Cl.NC(=O)c1cnc(N[C@@H]2CCCC[C@@H]2N)nc1Nc1cccc(-n2nccn2)c1 [UNC10302682A, P505-15 (PRT06207 HCl)]  cloned human or rodent CNS receptors, channels, and transporters (PDSP panel)      0.02
1  O=c1oc2ccccc2cc1-c1cn2cc(Cc3ccc(F)cc3)sc2n1 [UNC10302680A, iMDK]  cloned human or rodent CNS receptors, channels, and transporters (PDSP panel)    -13.89
2  CCCCNc1ncc2c(-c3ccc(CN4CCN(C)CC4)cc3)cn([C@H]3CC[C@H](O)CC3)c2n1 [UNC2025C, UNC2025]  cloned human or rodent CNS receptors, channels, and transporters (PDSP panel)     -9.56

Next molecule, please.
[ask] Hello, I am looking for reported Inhibition 3 with cloned human or rodent CNS receptors, channels, and transporters (PDSP panel) for c1cn2cc(-c3ccc4cn[nH]c4c3)nc(Nc3ccc(N4CCOCC4)cc3)c2n1 [UNC10302678A, Entospletinib (GS-9973)] . Could you help?
[reply] 1.47

====

study.target: cloned human or rodent CNS receptors, channels, and transporters (PDSP panel) (Homo sapiens, UniProt P28223)
Construct: expressed in transfected cells
Sequence (P28223 whole entry): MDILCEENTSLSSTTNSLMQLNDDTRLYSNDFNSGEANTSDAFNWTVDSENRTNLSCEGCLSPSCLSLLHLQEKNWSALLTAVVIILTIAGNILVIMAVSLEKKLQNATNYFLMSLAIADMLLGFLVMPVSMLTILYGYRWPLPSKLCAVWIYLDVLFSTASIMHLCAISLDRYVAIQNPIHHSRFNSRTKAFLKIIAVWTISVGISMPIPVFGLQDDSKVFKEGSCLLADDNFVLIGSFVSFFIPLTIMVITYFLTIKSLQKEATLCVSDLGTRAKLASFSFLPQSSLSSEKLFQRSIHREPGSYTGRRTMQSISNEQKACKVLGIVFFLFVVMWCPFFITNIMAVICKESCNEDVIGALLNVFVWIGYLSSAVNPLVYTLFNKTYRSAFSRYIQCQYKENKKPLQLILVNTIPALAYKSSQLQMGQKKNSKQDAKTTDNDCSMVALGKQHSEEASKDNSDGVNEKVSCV
procedure.text: PDSP GPCR panel primary binding assays at 10 μM
study.conditions: 5-HT2A; primary assay, replicate 4
// values below are reported Inhibition 4
The response must be a number in % with no trailing unit.

                                   molecule  reported
0  O=C(NC1CC1)C(=O)C(Cc1ccccc1)NC(=O)[C@H]1CCC(=O)N1Cc1ccccc1 (stereo partly shown) [UNC10302676A, ABT-957 (Alicapistat)]     -11.7

[ask] Name the reported Inhibition 4 value associated with the molecule CNc1nc(C)nc(N[C@H]2CCC[C@@H](C(=O)NCc3ccc(C#N)cc3C(F)(F)F)C2)n1 [UNC10302679A, GSK2256294A]
[reply] -4.63

[ask] Any idea what Inhibition 4 was measured for CCC(=O)N1CCC(NC(=O)Nc2ccc(OC(F)(F)F)cc2)CC1 [UNC10302681A, TPPU] ?
[reply] 3.92

[ask] Sample CC(=O)N1CCC(NC(=O)NC23CC4CC(CC(C4)C2)C3)CC1 [UNC10302683A, AR9281] — what was its Inhibition 4?
[reply] 0.14
